meta.source: a melting point compilation (Tetko et al.; mined from patent text by program, amines drawn as free bases though some values may be those of a salt)

Hi there, I'd appreciate the recorded melting point for every entry that follows.

Data request: Indicate its recorded melting point; the molecule in question is `CCC(=O)N1CCC(CC(=O)N2CCC([C@H]3c4ncc(Br)cc4CCc4cc(Cl)cc(Br)c43)CC2)CC1`
Data returned: 124 °C

Data request: Indicate its recorded melting point; the molecule in question is `CCCCCCOc1ccc(-n2cc(C(=O)OCC)cn2)cc1C#N`
Data returned: 93 to 94 °C

Data request: Indicate its recorded melting point; the molecule in question is `COc1ccc(S(=O)(=O)Nc2cccnc2Nc2ccccc2)cc1`
Data returned: 172 to 173 °C

Data request: Indicate its recorded melting point; the molecule in question is `Cn1c(CCc2cc(C(F)(F)F)cc(C(F)(F)F)c2)c(Cc2c[nH]c3ccccc23)oc1=O`
Data returned: 109 to 110 °C

Data request: Indicate its recorded melting point; the molecule in question is `CCCNc1nc(-c2ccc(OC)c(OC)c2)nc2sc(C#N)c(C)c12`
Data returned: 179 to 181 °C

Data request: Indicate its recorded melting point; the molecule in question is C=C1CC2(C)CC(=O)C(C)(C)C12 (stereo unspecified)
Data returned: -23 to -20 °C

Data request: Indicate its recorded melting point; the molecule in question is CC(C)C(C)Nc1c(NCc2ccc(C#N)cc2)c(=O)c1=O (stereo unspecified)
Data returned: 257 to 260 °C

Data request: Indicate its recorded melting point; the molecule in question is NC(=O)N1C(=O)C(C(=O)c2cccs2)c2nc(Cl)c(Cl)cc21 (stereo unspecified)
Data returned: 237 to 240 °C

Data request: Indicate its recorded melting point; the molecule in question is `O=[N+]([O-])c1cc(F)ccc1N1CCc2ccccc21`
Data returned: 87 to 89 °C

Data request: Indicate its recorded melting point; the molecule in question is `Cn1cncc1CC(=O)c1ccc(Br)cc1`
Data returned: 109 °C

Data request: Indicate its recorded melting point; the molecule in question is CCOC(=O)C1=C(C(F)(F)F)Nc2n[nH]cc2C1c1cccc2ccccc12 (stereo unspecified)
Data returned: 119 to 120 °C

Data request: Indicate its recorded melting point; the molecule in question is `CNc1nc(C)c(-c2nc3ccccc3c(=O)n2-c2ccccc2)s1`
Data returned: 209 to 210 °C

Data request: Indicate its recorded melting point; the molecule in question is `O=c1[nH]c2ccccc2n1CCCN1CCN(c2n[nH]c3cc(F)ccc23)CC1`
Data returned: 236 to 238 °C

Data request: Indicate its recorded melting point; the molecule in question is `Cc1ccccc1NC(=O)CN(C(=O)CN1C(=O)c2ccccc2C1=O)c1ccccc1`
Data returned: 160 °C

Data request: Indicate its recorded melting point; the molecule in question is O=C(NC(CC1CCCC1)C(=O)NC1CCCN(S(=O)(=O)c2ccccc2)CC1=O)c1ccco1 (stereo unspecified)
Data returned: 88 to 90 °C

Data request: Indicate its recorded melting point; the molecule in question is `COc1cc(N)ccc1S(=O)(=O)n1c(=O)n(C2CCCCC2)c2cc(Cl)ccc21`
Data returned: 211 °C

Data request: Indicate its recorded melting point; the molecule in question is `C=CC(=O)Nc1ccc2c(Nc3cccc(C)c3)ncnc2c1`
Data returned: 270 °C

Data request: Indicate its recorded melting point; the molecule in question is `O=S1(=O)N=CN(C2CC2)c2cc(Br)c(C(F)(F)F)cc21`
Data returned: 204 to 206 °C

Data request: Indicate its recorded melting point; the molecule in question is `Fc1cc(N2CCNCC2)c2ncccc2c1`
Data returned: 103 °C

Data request: Indicate its recorded melting point; the molecule in question is CCN1C(=O)C(C(=O)Nc2cccc(S(C)=O)c2)c2cc3c(cc21)CCO3 (stereo unspecified)
Data returned: 180 to 185 °C

Data request: Indicate its recorded melting point; the molecule in question is `CNS(=O)(=O)Oc1ccccc1OC`
Data returned: 68 to 71 °C
